Test system: HOP-62 NSCLC
measurement_protocol: NCI-60 one-dose screen, 48 h
conditions_used: 10 µM unless noted
This is part of a sample that, as a whole, favours compounds with a hit. Of some 83,000 tested, about 20% had one in any assay. Active and inactive are the calls of the source. How the source made its calls: active means growth percent below 10; inactive means the rest.
// allowed return values: active, inactive

These recorded examples may help you get a feel for the data.
compound	category
COc1cc(-c2nc(SCC(C)C)nc(Nc3cccc4ccccc34)c2C#N)cc(OC)c1OC	inactive
O=C1CC(N2C(=O)/C(=C/C(Cl)=C\c3ccc([N+](=O)[O-])cc3)SC2=S)C(=O)N1c1ccc(Cl)cc1 (stereo unspecified)	inactive
CCOC(=O)c1c(C)c2c(n1C)CSc1cc(C(=O)c3ccccc3)c(=O)[nH]c1-2	inactive
O=C1/C(=C/c2ccc(F)cc2)COc2ccc(O)c(O)c21	active
C#Cc1cccc(Nc2ncnc3ccc(-c4cncc(NS(C)(=O)=O)c4)cc23)c1	inactive

INPUT: Test call, this compound: "N#Cc1c(N)nnn1Cc1cc(=O)oc2c1ccc1ccccc12"
OUTPUT: inactive

INPUT: Let us now turn to "Cc1cc(=O)[nH]c2c(C#N)cnn12"
OUTPUT: inactive

INPUT: Let us now turn to "COC(=O)c1c2c(c(C)[n+]([O-])c1C)C(=O)C=C(NCc1ccc(OC)cc1)C2=O"
OUTPUT: active

INPUT: Let us now turn to "O=C1c2cc(Cl)ccc2S(=O)(=O)c2c(NCCCNCCO)nc3ccccc3c21"
OUTPUT: inactive

INPUT: Let us now turn to "O=C1c2cccnc2C(=O)c2c1c(C(=O)NCCn1ccnc1)c1ccccn21"
OUTPUT: inactive

INPUT: Let us now turn to "N#Cc1c(-c2ccc(Cl)cc2)nc(SCC(=O)NC2=NN=C(c3ccccc3)CS2)[nH]c1=O"
OUTPUT: inactive

INPUT: Let us now turn to "CC(C)(C)n1cc(-c2ccnc(NCCCNS(=O)(=O)c3ccc(F)cc3)c2)c(-c2cccc(F)c2)n1"
OUTPUT: inactive

INPUT: Let us now turn to "CCCc1cc(NC)nc(S(=O)(=O)CC)n1"
OUTPUT: inactive

INPUT: Let us now turn to "C=CCn1cc(-c2nc3ccccc3s2)c2cc(-c3ccc4c5c(cccc35)C(=O)N(N)C4=O)ccc21"
OUTPUT: inactive

INPUT: Let us now turn to "Cc1cccc2c1NC(=O)C2(c1ccc(O)cc1)c1ccc(O)cc1"
OUTPUT: inactive

INPUT: Let us now turn to "Cc1ccc(-c2nc3nc(-c4ccc(F)cc4)nc(N4CCNCC4)c3o2)cc1"
OUTPUT: inactive

INPUT: Let us now turn to "CC(C)n1cnc2c(=S)nc[nH]c21"
OUTPUT: inactive

INPUT: Let us now turn to Nc1nc(=S)c2ncn(C3OC(COP(=O)(O)O)C(O)C3O)c2[nH]1 (stereo unspecified)
OUTPUT: inactive

INPUT: Let us now turn to "COc1cc(-c2nc(SCCC(C)C)nc(Nc3ccccc3Cl)c2C#N)cc(OC)c1OC"
OUTPUT: inactive

INPUT: Let us now turn to "N#C/C(=C\c1ccc(Br)cc1)n1nnc2ccc(F)cc21"
OUTPUT: inactive

INPUT: Let us now turn to CN(Cc1ccc(C(F)(F)F)cc1)CC(O)C(=O)Nc1ccc(Cl)cc1 (stereo unspecified)
OUTPUT: active
